Reference source for all entries: patent US8450525B2

The reader will find reported HDAC Inhibition % (10 μM) values listed item by item below.
Test system: HDAC (Mouse Liver Extract)
Construct: Mouse liver enzyme (10 mg/ml) was diluted 1:6 with HDAC buffer
protocol.summary: HDAC inhibition assay using Boc-Lys(Ac)-AMC substrate, mouse liver enzyme
Type: biochemical
details: 10 μM
// note: answer is a bare numeric in %

I am curious: what HDAC Inhibition % (10 μM) value has been reported for `Nc1ccccc1NC(=O)c1ccc(/C=C(/C(=O)NC2CC2)c2ccc(F)c(F)c2)cc1` ?
50.1

Cool, now `Nc1ccccc1NC(=O)c1ccc(/C=C(\C(=O)NC2CC2)c2ccc(F)cc2)cc1`
16.6

Cool, now `COc1ccc(/C(=C\c2ccc(/C=C/C(=O)NO)cc2)C(=O)NC2CC2)cc1`
99.5

Cool, now `COc1ccc(/C(=C\c2ccc(/C=C/C(=O)Nc3ccccc3N)cc2)C(=O)NC2CC2)cc1OC`
12.1

Cool, now `O=C(/C=C/c1ccc(/C=C(/C(=O)N2CCOCC2)c2ccc(F)cc2)cc1)NCc1ccc(C(=O)NO)cc1`
100.0

Cool, now `O=C(/C=C/c1ccc(/C=C(/C(=O)N2CCCC2)c2ccc(F)cc2)cc1)NO`
90.3

Cool, now `Nc1ccccc1NC(=O)c1ccc(/C=C(/C(=O)NC2CC2)c2ccccc2Cl)cc1`
55.7

Cool, now `Nc1ccccc1NC(=O)c1ccc(/C=C(/C(=O)NC2CC2)c2ccc(-c3ccccc3)cc2)cc1`
45.4

###

The reader will find reported HDAC Inhibition % (1 μM) values listed item by item below.
Test system: HDAC (Mouse Liver Extract)
Construct: Mouse liver enzyme (10 mg/ml) was diluted 1:6 with HDAC buffer
protocol.summary: HDAC inhibition assay using Boc-Lys(Ac)-AMC substrate, mouse liver enzyme
Type: biochemical
details: 1 μM
// note: answer is a bare numeric in %

I am curious: what HDAC Inhibition % (1 μM) value has been reported for Nc1ccccc1NC(=O)/C=C/c1ccc(/C=C(/C(=O)NC2CC2)c2cccnc2)cc1 [Example 62] ?
27.1

Cool, now COc1ccc(/C(=C\c2ccc(C(=O)Nc3ccccc3N)cc2)C(=O)NC2CC2)c(OC)c1 [Example 120]
36.9

Cool, now O=C(CCCCCNC(=O)c1ccc(/C=C(/C(=O)NC2CC2)c2cccc(F)c2)cc1)NO [Example 164]
91.9

Could you now look at the following molecule, please?
I am curious: what HDAC Inhibition % (1 μM) value has been reported for O=C(/C=C/c1ccc(/C=C(/C(=O)NC2CC2)c2ccc(F)cc2)cc1)NCCCCCC(=O)NO [Example 75] ?
70.3

###

test.target: HDAC (Mouse Liver Extract)
Construct: Mouse liver enzyme (10 mg/ml) was diluted 1:6 with HDAC buffer
protocol.summary: HDAC inhibition assay using Boc-Lys(Ac)-AMC substrate, mouse liver enzyme
One threshold, 1000 nM, splits the recorded IC50 values: lower ones are 1 (yes), equal or higher ones are 0 (no).

These solved cases illustrate the format of a correct answer.
State whether 1000 nM exceeds IC50 recorded for O=C(/C=C/c1ccc(/C=C(/C(=O)NCc2ccc(F)cc2)c2ccc(F)cc2)cc1)NO [Example 34] .
1 (yes)

Cool, now Nc1ccccc1NC(=O)c1ccc(/C=C(/C(=O)NC2CC2)c2ccc3c(c2)OCO3)cc1 [Example 111]
0 (no)

Cool, now Nc1ccccc1NC(=O)c1ccc(/C=C(/C(=O)NC2CC2)c2ccc(F)cc2)cc1 [Example 105]
0 (no)

Cool, now COc1ccc(/C(=C\c2ccc(/C=C/C(=O)NO)cc2)C(=O)NC(C)C)cc1F [Example 26]
1 (yes)

Cool, now COc1ccc(/C(=C\c2ccc(C(=O)Nc3ccccc3N)cc2)C(=O)NC2CC2)cc1 [Example 116]
0 (no)

Cool, now O=C(/C=C/c1ccc(/C=C(/C(=O)NC2CC2)c2ccccc2Cl)cc1)NCCCCCC(=O)NO [Example 77]
1 (yes)

***
State whether 1000 nM exceeds IC50 recorded for O=C(/C=C/c1ccc(/C=C(/C(=O)Nc2ccccc2)c2cccc(OC3CCCC3)c2)cc1)NO [Example 44] .
1 (yes)
